Assay: Hepatocyte stability, wistar hannover rat
Type: in vitro ADME
Conditions: wistar hannover rat hepatocytes, 0.5 million cells/ml
Structures can show the parent of a compound that is named as a salt.
Label YES when half-life at 2 μM is at or above 2 h; anything below gets NO.

Some solved cases for reference:
CCN(C)Cc1c(Cc2cccc(NS(=O)(=O)NC)c2F)c(=O)oc2cc(OC(=O)N(C)C)c(F)cc12 [Compound 238]: NO
CNS(=O)(=O)Nc1cccc(Cc2c(CN3CCNCC3)c3cc(Cl)c(OC(=O)N(C)C)cc3oc2=O)c1Cl [Compound 256, hydrochloride]: NO

Q: Hi, just wondering whether CNS(=O)(=O)Nc1cccc(Cc2c(CN(C)C)c3ccc(OC(=O)N(C)C)cc3oc2=O)c1Cl [Compound 274] shows half-life at 2 μM of 2 h or higher.
A: NO

Q: Repeat with CCN(C)Cc1c(Cc2cccc(NS(=O)(=O)NC)c2Cl)c(=O)oc2cc(OC(=O)N(C)C)ccc12 [Compound 245]
A: NO

Q: Repeat with CNS(=O)(=O)Nc1cccc(Cc2c(CN3CCNCC3)c3ccc(OC(=O)N(C)C)cc3oc2=O)c1Cl [Compound 246, hydrochloride]
A: YES

Q: Repeat with CCS(=O)(=O)Nc1cccc(Cc2c(CN3CCNCC3)c3cc(Cl)c(OC(=O)N(C)C)cc3oc2=O)c1Cl [Compound 257, hydrochloride]
A: NO
